Each entry below lists one item and its recorded TGI value.
- Tested on: MCF7 breast
- Test method notes: NCI tumour cell line growth inhibition, 48 h
Dear colleague, please return just the value in µM, with no unit written.

>>> print(df.to_string())
                                   compound  assay_target  scale_unit  readout_value
0  CC(C)C(Br)CC/C(CBr)=C(\Cl)CCl (stereo unspecified)   MCF7 breast          µM           19.3
1  CN1CCN(c2ccc3nc(-c4c5cccccc-5[nH]c4=O)[nH]c3c2)CC1   MCF7 breast          µM           32.1

Please look at the following compound next.
// output TGI; input COc1ccc2nc3cc(Cl)ccc3c(NCCCCCN3CCCCC3)c2c1 ; system MCF7 breast
2.13

---

- Test system: SF-268 CNS
- Test method notes: NCI tumour cell line growth inhibition, 48 h; in the data active means GI50 below about 0.43 µM; inactive means the rest
Output constraint: value belongs to active, inactive

// below: answered molecules
In [3]: df
Out[3]:
                                   molecule  assay_target  group_label
0  CN1CCN(CCn2c3c4ccccc4ccc3c3oc(=O)c4ccccc4c32)CC1    SF-268 CNS     inactive
1         O[N+]1=CC=CCC1=S.On1ccccc1=S.[Zn]    SF-268 CNS     inactive
2  C[C@]12CCC3c4ccc(O)cc4CCC3C1CC[C@@]2(O)C#Cc1ccc(C#C/C=C\C#Cc2ccccc2N)cc1 (stereo partly drawn)    SF-268 CNS     inactive

Tell me the recorded outcome of this test for Cc1c(C(N)=O)sc2c1c(=O)n(Cc1ccccc1)c1nnc(SCC(=O)Nc3ccc(Cl)cc3)n21 .
inactive

Tell me the recorded outcome of this test for FC(F)(F)c1ccc(-c2cncn2-c2ccccc2)cc1 .
inactive

Tell me the recorded outcome of this test for Nc1nc(N)c2cc(CNc3ccc(C(=O)NC(CC(=O)O)C(=O)O)cc3)ccc2n1 (stereo not drawn) .
active

Tell me the recorded outcome of this test for CN1CCN(c2ccc3nc(-c4c5cccccc-5[nH]c4=O)[nH]c3c2)CC1 .
inactive

Tell me the recorded outcome of this test for CN([O-])c1nc(N(C)[O-])nc(N2CCOCC2)n1.CN([O-])c1nc(N(C)[OH2+])nc(N2CCOCC2)n1.[Fe+3] .
inactive

---

- Tested on: 786-0 renal
- Test method notes: NCI tumour cell line growth inhibition, 48 h; in the data active = GI50 below about 0.43 µM; inactive = the rest
Output constraint: value belongs to active, inactive

>>> print(df.to_string())
                                   compound  group_label
0  O=C(Nc1cccc(-c2cccc(F)c2)c1)C1CCN(Cc2cccc3cccnc23)CC1     inactive
1  Cc1ccc(-c2cc(C(=O)N3N=C(c4ccc(N)cc4)CC3c3ccc(Cl)cc3)c3ccccc3n2)cc1 (stereo unspecified)     inactive
2    COc1ccc(/C=C/C(=O)c2cccc(B(O)O)c2)cc1O     inactive
3  CN1CCN(CCn2c3c4ccccc4ccc3c3oc(=O)c4ccccc4c32)CC1     inactive
4  COc1cccc(/C=N/Nc2ncnc3c2cnn3-c2cccc(OC)c2)c1     inactive
5  COC(=O)C1=C(O)[C@H](C(=O)OC)C2(O)[C@@H](C(=O)OC)[C@H]1C[C@@H](c1ccc(OC(=O)n3ccnc3)cc1)[C@@H]2C(=O)OC     inactive
6  CN1CCN(c2ccc3nc(-c4c5cccccc-5[nH]c4=O)[nH]c3c2)CC1     inactive
7  COc1ccc2nc3cc(Cl)ccc3c(NCCCCCN3CCCCC3)c2c1       active
8  C[C@]12CCC3c4ccc(O)cc4CCC3C1CC[C@@]2(O)C#Cc1ccc(C#C/C=C\C#Cc2ccccc2N)cc1 (stereo partly specified)     inactive
9  COc1ccc(/C=N/C2=C(C#N)C(c3ccccc3)c3c(ccc4ccccc34)O2)cc1 (stereo unspecified)     inactive

Tell me the recorded outcome of this test for CC(=O)c1cc2c(c(O)c1C)C(=O)C(=O)c1c(O)cccc1-2 .
active

Tell me the recorded outcome of this test for COc1ccc2c(c1)C(=O)c1c-2n(CCCNCCO)c(=O)c2ccccc12 .
active

Tell me the recorded outcome of this test for NC(=O)c1cccc(N2Cc3ccccc3OC3=C2C(=O)c2c(O)ccc(O)c2C3=O)c1 .
active

Tell me the recorded outcome of this test for Nc1ccn(C2OC(CO)C3[O][Sn]([c]4ccccc4)([c]4ccccc4)[O]C32)c(=O)n1 (stereo unspecified) .
inactive

Tell me the recorded outcome of this test for C1CN1c1nc(N2CC2)nc(N2CC2)n1 .
inactive

Tell me the recorded outcome of this test for COc1cccc2c1-c1ccccc1C2=O .
inactive

meta.source: PubChem BioAssay (NCI)
